# Test system: PPARg:RXRa 30nM:10nM, anti-RXR (NR concentration 30 nM, RXRa partner concentration 10 nM)
# Test Summary: PBM binding z-score (relative to random genomic background probes); higher = stronger binding; sequences stand for … in GC…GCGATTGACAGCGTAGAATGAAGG
Please note: 1 (yes) applies when PBM binding z-score is 2 or greater, and 0 (no) applies otherwise.

ATCTAAAGGTCGACGAGGTGAGTATACACCGTTT: 0 (no)
AATACAGGTTCACTAGGCCAGAGTAGGTACGAAT: 0 (no)
CGTCCAAGGTCAGAGATGTCAGTGAATGCCGAGT: 0 (no)
GGAACGAGGGCCAGTTGATAGCAGAGTTTGATGG: 0 (no)
CGAACTAGGGCAAGGACAGTGAATCTCCGCACGC: 0 (no)

Has TCATATAGGTAACAGGTGAAAGTCGGTGTGGTAA a recorded PBM binding z-score greater than or equal to 2?
1 (yes)

Has GATACAGGGTCGAGGCCAGAGTACGCGTATTGAT a recorded PBM binding z-score greater than or equal to 2?
0 (no)

Has ATATGTAGGTTTAGGGTCATTCAGGTTGGTTCGC a recorded PBM binding z-score greater than or equal to 2?
1 (yes)

====

# System: THRa homodimer (NR concentration 90 nM)
# Test Summary: PBM binding z-score (relative to random genomic background probes); higher = stronger binding; sequences stand for … in GC…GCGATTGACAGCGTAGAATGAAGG
Please note: Criterion met applies when PBM binding z-score is 0.5 or greater, and Criterion not met applies otherwise.

These recorded examples may help you get a feel for the data.
TAGCCTAGGTCAATGGGCCAGTATAGTACGCATC: Criterion not met
ACTTACGGGCCAACGAGGTTATAGCACGCGTATA: Criterion not met
CCTACTGGACCAAAGGTCATTGATTCCAATGCTC: Criterion met
GCGCCTGGGGCATCAGCAGGTTACCATAACTTAA: Criterion not met
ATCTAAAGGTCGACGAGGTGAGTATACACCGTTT: Criterion met
TAGGCTAGGTCATTCAGGGGCCAGTATAGAAAGC: Criterion met
ACTAGCAGGCCAAGTTTGGGTGACTCAAACAAAG: Criterion not met
CCTTACGGGTCACTCCAGGTTATAGCGTCGGAGT: Criterion not met

Has TCTTGTTGGTCACGGAGGTCACACACGACGGGTA a recorded PBM binding z-score greater than or equal to 0.5?
Criterion met

Has TCTGCTAGGTCACTTGGTCAGCTAACGAGCTGCC a recorded PBM binding z-score greater than or equal to 0.5?
Criterion met

Has CGAACTAGGTCAGAACAGGACAGTAAAGGATGAT a recorded PBM binding z-score greater than or equal to 0.5?
Criterion not met

Has CCTTACGGGTCAAGGTTATAACACGGGTGGTACG a recorded PBM binding z-score greater than or equal to 0.5?
Criterion met

====

# Tested on: LXRb homodimer (NR concentration 270 nM)
# Test Summary: PBM binding z-score (relative to random genomic background probes); higher = stronger binding; sequences stand for … in GC…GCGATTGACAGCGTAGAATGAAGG
Reported Endpoint: PBM binding z-score
Give a plain numeric answer without units written out.

Some solved cases for reference:
CCTATTAGTTGACCATAAGGGCAGCCGAAGCTCG: 0.392
ACTTACGGGTCAACGAGGTAATAGCACGCGTATA: 0.727
CTTAGCAGGCCAATCTGGGTCACTCAAGGCTTGA: -0.93
GCTAGTTGGTCCGTAAAAGGTCACACACCGGTCG: 0.618
GCTAGCAGGCCATATGGGTCACTCAATGACGGGC: -0.907

So for TCTTGTAGATCAGCAGGTTAAAAAAGCTGGCCAA , the logged PBM binding z-score turned out to be -0.538

So for TGGCCTAGGTCATTCAGGGGCCAGTATAGAAAGC , the logged PBM binding z-score turned out to be 0.0581

So for ACTCGCAGGACAAAGGTCAGAGCTACGCCAGTGA , the logged PBM binding z-score turned out to be 0.178
